src = patent US20110105515A1

tested on: PC-3; conditions: read-out: LC50; PC-3 (Prostate Cancer), 48 hours, SRB
Listed below: CC50 values for each entry.
experimentalReadout: CC50 (µM)

compound	experimentalReadout	measurement
CN(C)c1cccc2c(S(=O)(=O)NCCCCCCCCCCOc3ccc4c(c3)[N+]([O-])=C3C4=C[C@@]45NC(=O)C6(CCCN6C4=O)CC5C3(C)C)cccc12 (some centres unmarked)	CC50	41.7
CC1(C)C=Cc2c(ccc3c4c(n(O)c23)C(C)(C)C2CC35CCCN3C(=O)C2(NC5=O)C4SCC(NC(=O)CCC(N)C(=O)O)C(=O)NCC(=O)O)O1 (centres unmarked)	CC50	11.6
